Where these numbers come from: PubChem BioAssay AID1508591

Conditions: rat; liver microsomes; pH 7.4; 15.0 min; 1.0 µM
observed_property: half-life (min)
# output: bare number, implied unit min

>  <molecule>
Cc1ccc(NC(=O)c2cc(-c3ccc[nH]3)n[nH]2)cc1F

>  <unit_string>
min

>  <half-life>
6.16

$$$$
>  <molecule>
CC(C)(N)C(=O)N[C@H](COCc1ccccc1)C(=O)N1CCC2(CC1)CN(S(C)(=O)=O)c1ccccc12

>  <unit_string>
min

>  <half-life>
4.99

$$$$
>  <molecule>
CC(Nc1ccc([S+](=O)([O-])Nc2nccs2)cc1)c1ccccc1 (stereo not given)

>  <unit_string>
min

>  <half-life>
13

$$$$
>  <molecule>
CCOC(=O)C1CCN(C(=O)C(C)(C)NC(=O)Nc2ccc(Cl)cc2Cl)CC1

>  <unit_string>
min

>  <half-life>
1.36

$$$$

Please look at the following molecule next.
Input line: Recall and state the measured half-life for Cn1cc(Br)c(C2N=C(Nc3nc4ccccc4o3)NC3=C2C(=O)CCC3)n1 (stereo not given) .
Output line: 8.5
